Data origin: ChEMBL document CHEMBL4513216

Reported INHIBITION values follow for various molecules
Test system: Plasmodium berghei
Experiment summary: Screen against P. berghei liver stage (PbLuc), transformed with Luciferase, at 10uM
Type: functional, HepG2
Details: tested at 10 uM
Hit rate of the full screen: of about 69,000 compounds, about 8,600 (12%) showed an effect of 50% or more. This is one part of a sample in which strong results are shown more often than they occur.
Numbers only here, please. The scale is %.

Cc1cc(F)c(S(=O)(=O)Nc2ccn(CCCC#N)n2)cc1F; 30.5
CC(=O)N1CCCn2nc(CNC(=O)N3CCCCC3)cc2C1; 14.3
CCSCCC(C)N(C)C(=O)c1cc(C)no1 (centres undefined); 55.2

The molecule listed as CN(C)C(C(=O)N1CCN(CCn2cccc2)CC1)c1cccc(F)c1 (centres undefined) has a reported INHIBITION of 44.7

The molecule listed as Cc1n[nH]c(C)c1CCCN(C)c1cc(N(C)C)ncn1 has a reported INHIBITION of 8.51

The molecule listed as Cc1cccc(C(=O)N2C[C@@H](C)[C@@]3(CCN(c4ccsc4)C3=O)C2)n1 has a reported INHIBITION of 19.4

The molecule listed as COCCCN1CCN(C(=O)C(c2cccc(F)c2)N(C)C)CC1 (centres undefined) has a reported INHIBITION of 50.1

The molecule listed as C[C@@H]1CN(C(=O)c2ccsc2)C[C@]12CCN(c1ccsc1)C2=O has a reported INHIBITION of 35.3

The molecule listed as CCSCCC(C)N(C)C(=O)c1ccc2nncn2c1 (centres undefined) has a reported INHIBITION of 34.7

###

Test system: Plasmodium berghei
Experiment summary: Screen against P. berghei liver stage (PbLuc), transformed with Luciferase, at 10uM
Format: functional, HepG2
Details: tested at 10 uM
In all, about 69,000 compounds went through this assay and about 8,600 (12%) showed an effect of 50% or more. What follows is part of a selection rich in strong results, with near analogues and random picks from the rest.
Reported metric: INHIBITION (%)
Numbers only here, please. The scale is %.

Some solved cases for reference:
COc1ccc(-n2ccc(C(=O)NCCN3CCCCCC3)n2)cc1; 51.1
Cc1cc(NCCCNc2cccnc2)n2nc(C)c(C)c2n1; 3.945
CSC(C)Cc1c(-c2ccccc2)ncn1CCCNc1cccnc1 (configuration not stated); 82.5
CSCCC(NC(N)=O)C(=O)NCc1ccc(-n2cccn2)cc1 (configuration not stated); 56.6
COc1ncc(CN2CCCC2c2[nH]ncc2C(=O)N(C)C)cn1 (configuration not stated); 3.48

Shift focus to the following entry.
Short answer on Plasmodium berghei for CCC(NC(=O)CC1CCN(CC)CC1)c1cn2cccnc2n1 (configuration not stated) , INHIBITION: -15.3

###

Tested on: Plasmodium berghei
Experiment summary: Screen against P. berghei liver stage (PbLuc), transformed with Luciferase, at 10uM
Assay type: functional, HepG2
Details: tested at 10 uM
The whole screen tested about 69,000 compounds, of which about 8,600 (12%) showed an effect of 50% or more. This excerpt belongs to a sample that is enriched for strong results.
Reported metric: INHIBITION (%)
Numbers only here, please. The scale is %.

Some solved cases for reference:
Cn1c(=O)oc2ccc(S(=O)(=O)N3CCC(c4ccccc4)C3)cc21 (stereo unspecified); -5.26
CC(=O)N1CCC(n2ccc(-c3cnc(NCC(C)C)nc3)n2)CC1; 56
CC[C@H](C)Nc1ncc(-c2ccn(C3CCN(C(C)=O)CC3)n2)cn1; 24.8
CCOc1cccc(CNC(=O)CN2CCC3(CCOC3)C2)c1 (stereo unspecified); 61.9
Cn1c(=O)oc2cc(S(=O)(=O)N3CCC(c4ccccc4)C3)c(Cl)cc21 (stereo unspecified); 55

Shift focus to the following entry.
The compound listed as COCc1ccccc1CNC(=O)CN1CCC2(CCOC2)C1 (stereo unspecified) has a reported INHIBITION of 68.4

###

Tested on: Plasmodium berghei
Experiment summary: Screen against P. berghei liver stage (PbLuc), transformed with Luciferase, at 10uM
Type: functional, HepG2
Details: tested at 10 uM
Hit rate of the full screen: of about 69,000 compounds, about 8,600 (12%) showed an effect of 50% or more. The entries come from a sample that favours strong results as a whole.
Answer not met if INHIBITION is under 10%, and met if it is 10% or more.

Cc1nc2c(c(NC3CC3)n1)CCN(C(=O)C(C)(C)O)CC2; met

Hello, I need to know if Cc1cc(C)n(Cc2cc(C(=O)N3CCCCC3c3nccs3)n[nH]2)n1 (stereo not drawn) has measured INHIBITION not below 10%. Thanks! not met

Hello, I need to know if CCc1nc2c(c(NC3CCC3)n1)CCN(C(=O)CO)CC2 has measured INHIBITION not below 10%. Thanks! met

Hello, I need to know if CN1CCN(Cc2ccccc2CNC(=O)c2cc(Cl)ccc2F)CC1 has measured INHIBITION not below 10%. Thanks! met

Hello, I need to know if CCCNC(=O)c1cccc(CNCc2csc(C(C)C)n2)c1 has measured INHIBITION not below 10%. Thanks! met

Hello, I need to know if CN1CCN(Cc2ccccc2CNC(=O)c2ccc(Cl)cc2F)CC1 has measured INHIBITION not below 10%. Thanks! met

Hello, I need to know if O=C(c1cccc2c1OCO2)N1CCC(N2CCCC2)CC1 has measured INHIBITION not below 10%. Thanks! not met

Hello, I need to know if CC(=O)N1CCC2(CC1)CN(C(=O)c1cccnc1)c1ccc(F)cc12 has measured INHIBITION not below 10%. Thanks! met

###

Reported INHIBITION values follow for various compounds
System: Plasmodium berghei
Experiment summary: Screen against P. berghei liver stage (PbLuc), transformed with Luciferase, at 10uM
Type: functional, HepG2
Details: tested at 10 uM
In all, about 69,000 compounds went through this assay and about 8,600 (12%) showed an effect of 50% or more. For the sample, strong results were picked, then their nearest neighbours and some compounds at random.

NC(=O)Cn1cc(NC(=O)N2CCCCCC2)cn1; 2.5%

The compound listed as CS(=O)(=O)N1C[C@H]2CC[C@@H](C1)N(Cc1ccsc1)C2 has a reported INHIBITION of 10.2%

The compound listed as N#Cc1ccc(N2CCC3(CCC(=O)N3Cc3cccnc3)CC2)nc1 has a reported INHIBITION of 27.6%

The compound listed as COCC(=O)NCC[C@H]1CC(C)(C)Oc2ccc(OC)cc21 has a reported INHIBITION of 1.11%

The compound listed as Cc1noc([C@H]2C[C@H]3OCC[C@H]3N(Cc3cccs3)C2)n1 has a reported INHIBITION of 43.9%

###

Tested on: Plasmodium berghei
Experiment summary: Screen against P. berghei liver stage (PbLuc), transformed with Luciferase, at 10uM
Format: functional, HepG2
Details: tested at 10 uM
In all, about 69,000 compounds went through this assay and about 8,600 (12%) showed an effect of 50% or more. Many of the other results were omitted from the sample, so strong results are more common in it than they were.
Reported metric: INHIBITION (%)
Numbers only here, please. The scale is %.

Some solved cases for reference:
Cc1nc(-c2ccsc2)ccc1C(=O)NCCN1CCOCC1; 48.1
CCCn1cc2c(C(F)F)cc(SCC(=O)O)nc2n1; 32.3
N#Cc1ccccc1N1CCCN(CC(=O)Nc2ccc(Cl)cn2)CC1; 37.7
Cc1ccc2nc(-c3nc4c([nH]3)CCCNC4=O)cn2c1; -87.9
Cc1nc(-c2ccsc2)ccc1C(=O)NCCC(=O)N1CCCC1; 49.6

Shift focus to the following entry.
The compound listed as Cc1nc(-c2ccsc2)ccc1C(=O)NCCC1CCCO1 (stereo unspecified) has a reported INHIBITION of 52.7

###

System: Plasmodium berghei
Experiment summary: Screen against P. berghei liver stage (PbLuc), transformed with Luciferase, at 10uM
Format: functional, HepG2
Details: tested at 10 uM
Screen size: about 69,000 compounds; about 8,600 (12%) showed an effect of 50% or more. The full list was thinned out, with strong results kept by preference.
Reported INHIBITION values follow for various compounds
Numbers only here, please. The scale is %.

Some solved cases for reference:
O=C(c1cc(C2CC2)nc2onc(-c3ccccc3)c12)N1CCOCC1; 51.7
Cc1ccc(C(=O)N2C[C@H](OCC3CCOCC3)[C@H]3OCCC[C@H]32)o1; -33.9
CCNC(=O)N1CCc2ccc(NC(=O)NCC3CC3)cc21; 10.7
CC(C)COc1cncc(N(C)C2CCN(c3ncccn3)CC2)n1; 21.2
Cc1nc(C2CCCN(C(=O)c3cc(C(C)(C)C)on3)C2)no1 (stereo unspecified); -21.8
CC(C)CC(=O)N[C@H](C)c1c(-c2ccc(Cl)cc2)noc1C(=O)O; 7.5
O=C(c1ccccc1)N1C[C@H]2CC[C@@H](C1)N(Cc1cc(F)ccc1Cl)C2; 25
CC(C)COc1cncc(N2CCCN(c3ncccn3)CC2)n1; 50.4
CC(C)n1cc(CN2CCCN(C(=O)C(C)n3cncn3)CC2)cn1 (stereo unspecified); 26.4
CCS(=O)(=O)N1CCc2ccc(NC(=O)NCc3ccccc3)cc21; -23.5

Shift focus to the following entry.
Short answer on Plasmodium berghei for COc1ncccc1CNCc1cnc(N2CCOCC2)nc1 , INHIBITION: -65
